System: LOC_OS02G45750-cb003;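 note: purified Escherichia coli-expressed rice kinase domain construct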
TEST DESCRIPTION: thermal shift delta Tm vs DMSO control; higher = stronger stabilization (binding)
EXPERIMENTAL CONDITIONS: 12.5 µM; protein concentration 2 µM
Structures can show the parent of a compound that is named as a salt.
Below, each entry is listed alongside its reported thermal shift delta Tm.
OBSERVED PROPERTY: thermal shift delta Tm (°C)

compound=CN1CCCN(C(=O)c2cccc(-c3ccc(/C=C4/C(=O)Nc5ccc(Cl)cc54)o3)c2)CC1 measured_on=LOC_OS02G45750-cb003 observed_property="thermal shift delta Tm" observed_result=5.04
compound=CCS(=O)(=O)c1cccc(-c2cc(C(=O)NC3CCN(C)CC3)c(C)c3[nH]c4ncc(C)cc4c23)c1 measured_on=LOC_OS02G45750-cb003 observed_property="thermal shift delta Tm" observed_result=5.63
compound=N#Cc1ccc2[nH]c(O)c(-c3ccc(CN4CCOCC4)cn3)c2c1 measured_on=LOC_OS02G45750-cb003 observed_property="thermal shift delta Tm" observed_result=1.77
compound=Cc1[nH]c(/C=C2\C(=O)Nc3ccc(S(=O)(=O)Cc4c(Cl)cccc4Cl)cc32)c(C)c1C(=O)N1CCC[C@@H]1CN1CCCC1 measured_on=LOC_OS02G45750-cb003 observed_property="thermal shift delta Tm" observed_result=0
compound="COc1cc2ncnc(Nc3ccc(F)c(Cl)c3)c2cc1OCCCN1CCOCC1 [Gefitinib (ZD1839)]" measured_on=LOC_OS02G45750-cb003 observed_property="thermal shift delta Tm" observed_result=1.36
compound="CC1(C)CNc2cc(NC(=O)c3cccnc3NCc3ccncc3)ccc21 [Motesanib Diphosphate (AMG-706)]" measured_on=LOC_OS02G45750-cb003 observed_property="thermal shift delta Tm" observed_result=-0.06
compound="CNC(=O)c1cc(Oc2ccc(NC(=O)Nc3ccc(Cl)c(C(F)(F)F)c3)cc2)ccn1 [Sorafenib Tosylate]" measured_on=LOC_OS02G45750-cb003 observed_property="thermal shift delta Tm" observed_result=2.62
compound=Oc1ccc(Nc2nc(-c3ccc(Cl)cc3)cs2)cc1 measured_on=LOC_OS02G45750-cb003 observed_property="thermal shift delta Tm" observed_result=0.87
compound=Oc1cc(O)cc(/C=C/c2ccc(O)c(O)c2)c1 measured_on=LOC_OS02G45750-cb003 observed_property="thermal shift delta Tm" observed_result=-0.87
compound=N#C/C(=C(/N)Sc1ccc(N)cc1)c1ccccc1C(F)(F)F measured_on=LOC_OS02G45750-cb003 observed_property="thermal shift delta Tm" observed_result=-0.09
compound="CCOc1cc2ncc(C#N)c(Nc3ccc(F)c(Cl)c3)c2cc1NC(=O)/C=C/CN(C)C [Pelitinib (EKB-569)]" measured_on=LOC_OS02G45750-cb003 observed_property="thermal shift delta Tm" observed_result=4.93
compound="Cc1ccc(Nc2nccc(N(C)c3ccc4c(C)n(C)nc4c3)n2)cc1S(N)(=O)=O [Pazopanib]" measured_on=LOC_OS02G45750-cb003 observed_property="thermal shift delta Tm" observed_result=3.24
compound=O=C1Cc2c([nH]c3ccc(Br)cc23)-c2ccccc2N1 measured_on=LOC_OS02G45750-cb003 observed_property="thermal shift delta Tm" observed_result=6.87
compound=CN1CCN(c2ccc(-c3ccncc3-c3cc(F)c(O)c(F)c3)cc2)CC1 measured_on=LOC_OS02G45750-cb003 observed_property="thermal shift delta Tm" observed_result=0.61
compound=CN(C)C/C=C/C(=O)Nc1ccc(C(=O)Nc2cccc(Nc3ncc(Cl)c(-c4c[nH]c5ccccc45)n3)c2)cc1 measured_on=LOC_OS02G45750-cb003 observed_property="thermal shift delta Tm" observed_result=6.63
compound=C[C@]1(O)C[C@@H](c2nc(-c3ccc4ccc(-c5ccccc5)nc4c3)c3c(N)nccn32)C1 measured_on=LOC_OS02G45750-cb003 observed_property="thermal shift delta Tm" observed_result=0.76
compound=CCc1nc(-c2cccc(C)c2)c(-c2ccnc(NC(=O)c3ccccc3)c2)s1 measured_on=LOC_OS02G45750-cb003 observed_property="thermal shift delta Tm" observed_result=0.74
compound=CCn1cc(-c2ccnc3[nH]c(-c4cccc(CN(C)C)c4)cc23)c(-c2ccc(NC(=O)N(C)C)cc2)n1 measured_on=LOC_OS02G45750-cb003 observed_property="thermal shift delta Tm" observed_result=2.5
compound=O=C(Nc1cccc(Nc2ncc(Br)c(NCCc3cnc[nH]3)n2)c1)N1CCCC1 measured_on=LOC_OS02G45750-cb003 observed_property="thermal shift delta Tm" observed_result=9.57
compound=CCCCCCCCCCCCc1ccc(S(=O)(=O)Nc2nncs2)cc1 measured_on=LOC_OS02G45750-cb003 observed_property="thermal shift delta Tm" observed_result=-1.65
compound="COc1cc2nccc(Oc3ccc(NC(=O)C4(C(=O)Nc5ccc(F)cc5)CC4)cc3)c2cc1OC [Cabozantinib malate (XL184)]" measured_on=LOC_OS02G45750-cb003 observed_property="thermal shift delta Tm" observed_result=0.86
compound=CCCCNc1ncc2c(-c3ccc(CN4CCN(C)CC4)cc3)cn([C@H]3CC[C@H](O)CC3)c2n1 measured_on=LOC_OS02G45750-cb003 observed_property="thermal shift delta Tm" observed_result=18.4
compound=Cc1cc(O)c2c(c1)C(=O)c1cccc(O)c1C2=O measured_on=LOC_OS02G45750-cb003 observed_property="thermal shift delta Tm" observed_result=0.14
compound=CNS(=O)(=O)C[C@H]1CC[C@H](N(C)c2[nH]cnc3nccc2-3)CC1 measured_on=LOC_OS02G45750-cb003 observed_property="thermal shift delta Tm" observed_result=3.43
compound=NC(=O)Nc1cc(-c2cccc(F)c2)sc1C(=O)N[C@H]1CCCNC1 measured_on=LOC_OS02G45750-cb003 observed_property="thermal shift delta Tm" observed_result=1.81
compound=C[C@@H](Nc1cc(F)cc(F)c1)c1cc(C(=O)N(C)C)cc2c(=O)cc(N3CCOCC3)oc12 measured_on=LOC_OS02G45750-cb003 observed_property="thermal shift delta Tm" observed_result=-0.34
compound=NC(=O)c1ccc2nc(-c3ccc(Oc4ccc(Cl)cc4)cc3)[nH]c2c1 measured_on=LOC_OS02G45750-cb003 observed_property="thermal shift delta Tm" observed_result=-1.27
compound=Cc1cc(Nc2cc(CN3CCOCC3)c3nc(C)c(Cc4ccc(Cl)cc4F)n3n2)n[nH]1 measured_on=LOC_OS02G45750-cb003 observed_property="thermal shift delta Tm" observed_result=3.56
compound=C[C@@H](NC(=O)c1ncnc(N)c1Cl)c1ncc(C(=O)Nc2cc(C(F)(F)F)c(Cl)cn2)s1 measured_on=LOC_OS02G45750-cb003 observed_property="thermal shift delta Tm" observed_result=0.64
compound=COc1cc2ncnc(Nc3cccc(Cl)c3F)c2cc1OC(=O)N1CCN(C)C[C@H]1C measured_on=LOC_OS02G45750-cb003 observed_property="thermal shift delta Tm" observed_result=1.31
compound="COc1nccc(-c2c(-c3ccc(F)cc3)ncn2C2CCC(O)CC2)n1 (stereo not given)" measured_on=LOC_OS02G45750-cb003 observed_property="thermal shift delta Tm" observed_result=0.57
compound=CN1CCN(Cc2ccc(NC(=O)Nc3ccc(Oc4ccnc(N)n4)cc3)cc2C(F)(F)F)CC1 measured_on=LOC_OS02G45750-cb003 observed_property="thermal shift delta Tm" observed_result=5.22
compound=CC(C)c1ccc2oc3nc(N)c(C(=O)O)cc3c(=O)c2c1 measured_on=LOC_OS02G45750-cb003 observed_property="thermal shift delta Tm" observed_result=4.41
compound="CC#CC(=O)N1CC[C@@H](n2c(=O)n(-c3ccc(Oc4ccccc4)cc3)c3c(N)ncnc32)C1 [ONO-4059 (GS-4059) hydrochloride]" measured_on=LOC_OS02G45750-cb003 observed_property="thermal shift delta Tm" observed_result=0.78
compound=Cc1cc(Nc2cc(N3CCN(C)CC3)nc(Sc3ccc(NC(=O)C4CC4)cc3)n2)n[nH]1 measured_on=LOC_OS02G45750-cb003 observed_property="thermal shift delta Tm" observed_result=6.99
